experiment-summary: Inhibition of […] (unknown origin) expressed in mouse BaF3 cells assessed as reduction in cell proliferation incubated for 2 to 3 days by Bright-Glo luciferase assay
Please respond with reported IC50 for every item in the list.
Numbers only, in nM.

Here's what some known entries look like.
>>> value_reported("Cc1cc(Nc2nc(Nc3ccccc3S(=O)(=O)C(C)C)c3cccnc3n2)c(OC(C)C)cc1C1CCNCC1")
3170
>>> value_reported("Cc1cc2c(Nc3ccccc3S(=O)(=O)C(C)C)nc(Nc3cc(C)c(C4CCN(C)CC4)cc3OC(C)C)nc2[nH]1")
1300
>>> value_reported("Cc1cc(Nc2nc(Nc3ccccc3S(=O)(=O)C(C)C)c3cn[nH]c3n2)c(OC(C)C)cc1C1CCN(C)CC1")
13
>>> value_reported("Cc1cc(Nc2nc(Nc3ccccc3S(=O)(=O)C(C)C)c3c(N)n[nH]c3n2)c(OC(C)C)cc1C1CCN(C)CC1")
150

// for each compound in input: emit IC50
1. Cc1cc(Nc2cc(Nc3ccccc3S(=O)(=O)C(C)C)c3cc[nH]c3n2)c(OC(C)C)cc1C1CCN(C)CC1
2. Cc1cc(Nc2nc(Nc3ccccc3S(=O)(=O)C(C)C)c3c(C)[nH]nc3n2)c(OC(C)C)cc1C1CCN(C)CC1 [US8592432, 34]
3. Cc1cc(Nc2nc(Nc3ccccc3S(=O)(=O)C(C)C)c3cn[nH]c3n2)c(OC(C)C)cc1C1CCNCC1
4. Cc1cc(Nc2nc(Nc3ccccc3S(=O)(=O)C(C)C)c3cc[nH]c3n2)c(OC(C)C)cc1C1CCNCC1
5. Cc1cc(Nc2nc(Nc3ccccc3S(=O)(=O)C(C)C)c3ccccc3n2)c(OC(C)C)cc1C1CCN(C)CC1

## Result
1: 1430; 2: 20; 3: 33; 4: 47; 5: 1080
